Can you tell me Molar enthalpy of transition or fusion for the items I'm about to list?
assay: Molar enthalpy of transition or fusion; details: Crystal; DSC
Entry rule: numbers only, all in kcal/mol.

Exercise: Name the recorded Molar enthalpy of transition or fusion for CCCCCCCCCCCCCCCCOC(=O)OCCCCCCCCCCCCCCCC [dihexadecyl carbonate] .
Key: 23.7

Exercise: Look up Molar enthalpy of transition or fusion: CCCCCCCCCCCCCCCCCCO
Key: 16.2

Exercise: Quick one: Molar enthalpy of transition or fusion for CCCCCCCC/C=C\CCCCCCCCO [(Z)-9-octadecen-1-ol] ?
Key: 8.41

Exercise: // Molar enthalpy of transition or fusion lookup, key: CCCCCCCCCCCCOC(=O)OCCCCCCCCCCCC [didodecyl carbonate]
Key: 16.6

Exercise: # input compound: CCCCCCCCCCCCCCOC(=O)OCCCCCCCCCCCCCC [ditetradecyl carbonate] ; wanted: its Molar enthalpy of transition or fusion
Key: 22.6

Exercise: Dear colleague, I am looking for the recorded Molar enthalpy of transition or fusion of the following compound: CCCCCCCCCCO
Key: 7.79

Exercise: Quick check: Molar enthalpy of transition or fusion of CCCCCCCC/C=C\CCCCCCCCOC(=O)OCCCCCCCC/C=C\CCCCCCCC [dioleyl carbonate] ?
Key: 13.5

Exercise: Which Molar enthalpy of transition or fusion value is on record for CCCCCCCCCCCCCCCCCCOC(=O)OCCCCCCCCCCCCCCCCCC [dioctadecyl carbonate] ?
Key: 24.3

Exercise: Please report the recorded Molar enthalpy of transition or fusion for CCCCCCCCCCOC(=O)OCCCCCCCCCC [didecyl carbonate] .
Key: 11.9

Exercise: Molar enthalpy of transition or fusion for CCCCCCCCCCCCCCO ?
Key: 12.3

Exercise: Which Molar enthalpy of transition or fusion is reported for this compound? CCCCCCCCCCCCO
Key: 8.33

---

For each record, write down the corresponding Normal melting temperature.
details: Crystal; DTA
Give your result in °C as a bare value.

Exercise: Which Normal melting temperature is reported for this compound? CCCCCCCCCCCCCCOC(=O)OCCCCCCCCCCCCCC [ditetradecyl carbonate]
Key: 35.00

Exercise: Using the record for CCCCCCCCCCCCCCCCCCOC(=O)OCCCCCCCCCCCCCCCCCC [dioctadecyl carbonate] , report its Normal melting temperature.
Key: 50.00

Exercise: I'd like to know its Normal melting temperature. The compound in question is CCCCCCCCCCCCCCCCCCO
Key: 54.00

Exercise: Which Normal melting temperature reading was recorded for the compound CCCCCCCC/C=C\CCCCCCCCO [(Z)-9-octadecen-1-ol] ?
Key: -1.00

Exercise: Recorded Normal melting temperature for CCCCCCCCCCO , please?
Key: 3.00

Exercise: // Normal melting temperature lookup, key: CCCCCCCCCCCCOC(=O)OCCCCCCCCCCCC [didodecyl carbonate]
Key: 21.00

Exercise: Which Normal melting temperature is listed for CCCCCCCCCCOC(=O)OCCCCCCCCCC [didecyl carbonate] ?
Key: -1.00

Exercise: Field request: Normal melting temperature | item: CCCCCCCCCCCCCCO
Key: 36.00

Exercise: I'd like to know its Normal melting temperature. The compound in question is CCCCCCCCCCCCCCCCOC(=O)OCCCCCCCCCCCCCCCC [dihexadecyl carbonate]
Key: 47.00

Exercise: Look at this compound and give its reported Normal melting temperature. CCCCCCCCCCCCO
Key: 23.00

Exercise: Please give the measured Normal melting temperature for this compound: CCCCCCCCCCCCCCCCO
Key: 48.00

Exercise: For the compound CCCCCCCC/C=C\CCCCCCCCOC(=O)OCCCCCCCC/C=C\CCCCCCCC [dioleyl carbonate] , what Normal melting temperature is on record?
Key: -4.00
